Each recorded value in this set is attributed to the supplement of paper PMC11208160.

# assay-info: recombinant barcode read abundance after kanamycin selection (control-corrected) (log10(CPM+1)); higher = more efficient recombination; sequences stand for … in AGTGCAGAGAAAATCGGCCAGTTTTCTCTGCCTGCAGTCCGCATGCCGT…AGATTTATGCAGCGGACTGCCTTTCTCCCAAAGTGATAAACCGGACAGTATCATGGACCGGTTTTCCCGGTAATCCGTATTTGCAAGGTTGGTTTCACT; site = the 11-nt target
Below, each of the sequences is paired with its reported recombinant barcode read abundance (log10) value.
measured-property: recombinant barcode read abundance (log10)

> print(dat)
                               item.sequence  reported
 1  TTCAAAGCTTGGGTTCTAACCTGTTGCCT (site TTCAAAGCTAG)    0.0407
 2  GGCACAACTTGGGTTCTAACCTGTTGCCT (site GGCACGACTAG)     0.262
 3  GGCTGCCCTTGGGTTCTAACCTGTTGCCT (site GACTGCCCTAG)     0.156
 4  TCACGTCCTTGGGTTCTAACCTGTTGCTT (site TCACGTCCTAC)    0.0167
 5  TAGTGGCCTTGGGTTCTAACCTGTTGCTA (site CCTGACTCTAT)         0
 6  TGGTCCGCTTGGGTTCTAACCTGTTGCCT (site TGGTTCGCTAG)     0.243
 7  CGAGCTCCTTGGGTTCTAACCTGTTGCAT (site CGAGCTCCTAG)     0.425
 8  CGAATGTCTTGGGTTCTAACCTGTTGCTG (site CGAATGTCTCA)       1.2
 9  GCTCATGCTTGGGTTCTAACCTGTTGCCT (site GCTCATGCTAG)      1.92
10  CGTTCTCCTTGGGTTCTAACCTGTTGCCT (site AGTTCTCCTAG)    0.0567

====

# assay-info: recombinant barcode read abundance after kanamycin selection (control-corrected) (log10(CPM+1)); higher = more efficient recombination; sequences stand for … in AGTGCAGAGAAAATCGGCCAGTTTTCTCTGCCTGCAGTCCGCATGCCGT…ATTTATGCAGCGGACTGCCTTTCTCCCAAAGTGATAAACCGGACAGTATCATGGACCGGTTTTCCCGGTAATCCGTATTTGCAAGGTTGGTTTCACT; site = the 11-nt target
measured-property: recombinant barcode read abundance (log10)

> print(dat)
                              item.sequence  reported
1  ATGTCCCCTTGGGTTCTAACCTGTTGCTCGC [ATGTCCCCTGA_LTGcore_CT_RTGcore_GC] (site ATGTCCCCTGA) (LTG core: CT, RTG core: GC)     0.327
2  AGGCCTCGCTGGGTTCTAACCTGTTGCCTGC [AGGCCTCCTAG_LTGcore_GC_RTGcore_GC] (site AGGCCTCCTAG) (LTG core: GC, RTG core: GC)     0.137
3  GGTGCCCCTTGGGTTCTAACCTGTTGCCGCC [GGTGCCCCTCG_LTGcore_CT_RTGcore_GG] (site GGTGCCCCTCG) (LTG core: CT, RTG core: GG)    0.0795
4  AGGCCTCTCTGGGTTCTAACCTGTTGCCTAG [AGGCCTCCTAG_LTGcore_TC_RTGcore_CT] (site AGGCCTCCTAG) (LTG core: TC, RTG core: CT)     0.137
5  AGGCGGGCTTGGGTTCTAACCTGTTGCGGCG [AGGCGGGCTCC_LTGcore_CT_RTGcore_CG] (site AGGCGGGCTCC) (LTG core: CT, RTG core: CG)     0.146

====

# assay-info: recombinant barcode read abundance after kanamycin selection (control-corrected) (log10(CPM+1)); higher = more efficient recombination; sequences stand for … in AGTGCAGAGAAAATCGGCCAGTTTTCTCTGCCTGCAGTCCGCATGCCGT…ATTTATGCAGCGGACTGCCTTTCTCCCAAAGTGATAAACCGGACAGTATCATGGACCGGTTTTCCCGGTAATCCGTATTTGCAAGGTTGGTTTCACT; site = the 11-nt target
Classify on recombinant barcode read abundance (log10) using low interval (below 0.1), middle interval (0.1 to below 0.3), high interval (0.3 or more)

> print(dat)
                               item.sequence            class
 1  AGGCCTCCTTGGGTTCTAACCTGTTGCCTCT [AGGCCTCCTAG_LTGcore_CT_RTGcore_AG] (site AGGCCTCCTAG) (LTG core: CT, RTG core: AG)    high interval
 2  CATATTACTTGGGTTCTAACCTGTTGCCTTA [CATATTACTAG_LTGcore_CT_RTGcore_TA] (site CATATTACTAG) (LTG core: CT, RTG core: TA)  middle interval
 3  AGTCTTATTTGGGTTCTAACCTGTTGCCAAA [AGTCTTACTTG_LTGcore_TT_RTGcore_TT] (site AGTCTTACTTG) (LTG core: TT, RTG core: TT)     low interval
 4  GGGCGTGCTTGGGTTCTAACCTGTTGCCTTA [GGGCGTGCTAG_LTGcore_CT_RTGcore_TA] (site GGGCGTGCTAG) (LTG core: CT, RTG core: TA)  middle interval
 5  GGGAGCCCTTGGGTTCTAACCTGTTGCTGGG [GGGAGCCCTCA_LTGcore_CT_RTGcore_CC] (site GGGAGCCCTCA) (LTG core: CT, RTG core: CC)  middle interval
 6  AAACACAGATGGGTTCTAACCTGTTGCCTAG [AAACACACTAG_LTGcore_GA_RTGcore_CT] (site AAACACACTAG) (LTG core: GA, RTG core: CT)     low interval
 7  AGGCGGGGATGGGTTCTAACCTGTTGCGGTC [AGGCGGGCTCC_LTGcore_GA_RTGcore_GA] (site AGGCGGGCTCC) (LTG core: GA, RTG core: GA)  middle interval
 8  TTATAAACTTGGGTTCTAACCTGTTGCCTCT [TTATAAACTAG_LTGcore_CT_RTGcore_AG] (site TTATAAACTAG) (LTG core: CT, RTG core: AG)     low interval
 9  GTCGCCCCATGGGTTCTAACCTGTTGCTAAG [GTCGCCCCTTA_LTGcore_CA_RTGcore_CT] (site GTCGCCCCTTA) (LTG core: CA, RTG core: CT)    high interval
10  AAACAGTCTTGGGTTCTAACCTGTTGCCTGA [AAACAGTCTAG_LTGcore_CT_RTGcore_TC] (site AAACAGTCTAG) (LTG core: CT, RTG core: TC)    high interval
11  TGATACCTGTGGGTTCTAACCTGTTGCGTCA [TGATACCCTAC_LTGcore_TG_RTGcore_TG] (site TGATACCCTAC) (LTG core: TG, RTG core: TG)  middle interval

====

# assay-info: recombinant UMI read abundance after kanamycin selection (control-corrected) (log10(CPM+1)); higher = more efficient recombination; extreme values may be limits of the assay; sequences stand for … in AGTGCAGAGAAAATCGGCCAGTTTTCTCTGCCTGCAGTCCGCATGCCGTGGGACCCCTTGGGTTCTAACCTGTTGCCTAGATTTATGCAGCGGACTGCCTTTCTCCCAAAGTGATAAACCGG…AGGTTGGTTTCACT; site = the 11-nt donor
measured-property: recombinant UMI read abundance (log10)

> print(dat)
                              item.sequence                       measured.property  reported
1  GGTACGTCATGGACCGGTTTTCCCGGTAATCCGTATTTGTT (site TGTACGTCTAA)  recombinant UMI read abundance (log10)    0.0329
2  GCGGAGGCATGGACCGGTTTTCCCGGTAATCCGTATTTGTG (site GTGGAGGCTCA)  recombinant UMI read abundance (log10)     0.832
3  TCGCTCCCATGGACCGGTTTTCCCGGTAATCCGTATTTGAA (site TCGCTCCCTTT)  recombinant UMI read abundance (log10)    0.0848
4  ACATTACCATGGACCGGTTTTCCCGGTAATCCGTATTTGGA (site ACATTACCTTC)  recombinant UMI read abundance (log10)         0
5  TAAGTTGCATGGACCGGTTTTCCCGGTAATCCGTATTTGTG (site TAAGTTGCTCA)  recombinant UMI read abundance (log10)       1.4
6  AGTGGGTCATGGACCGGTTTTCCCGGTAATCCGTATTTGCA (site AGTGGGTCTTG)  recombinant UMI read abundance (log10)      2.92
7  GGAGTGGCATGGACCGGTTTTCCCGGTAATCCGTATTTGGG (site GGAGTGGCTCC)  recombinant UMI read abundance (log10)     0.779
8  GTTAAAACATGGACCGGTTTTCCCGGTAATCCGTATTTGGC (site GTTACAACTGC)  recombinant UMI read abundance (log10)         0
9  AATCATTCATGGACCGGTTTTCCCGGTAATCCGTATTTGCT (site AATCATTCTAG)  recombinant UMI read abundance (log10)      2.27
